Task for the reader: assign each of the following compounds its reported MBC.
# Tested on: M. luteus NCIMB 8166
# Run Description: MBC by the agar method
# Measurement Setup: Micrococcus luteus, NCIMB8166
Kindly provide the numeric value in mg/L only, without the unit symbol.

Per the records, this compound ( O=C1NC(=O)[C@]2(N1)[C@@H](c1ccc(F)cc1)[C@H](c1ccccc1)N[C@@]21C(=O)Nc2ccc(Cl)cc21 (racemic) ) has MBC equal to 750

The measured MBC associated with O=C1NC(=O)[C@]2(N1)[C@@H](c1ccc(Cl)cc1)[C@H](c1ccccc1)N[C@@]21C(=O)Nc2ccc(Br)cc21 (racemic) reads 188

Please fill in: MBC reported for O=C1NC(=O)[C@]2(N1)[C@@H](c1ccccc1O)[C@H](c1ccccc1)N[C@@]21C(=O)Nc2ccccc21 (racemic) = 750

Note to self: MBC recorded for O=C1NC(=O)[C@]2(N1)[C@@H](c1ccccc1O)[C@H](c1ccccc1)N[C@@]21C(=O)Nc2ccc(Cl)cc21 (stereo in doubt) was 188

Entry O=C1NC(=O)[C@]2(N1)[C@@H](c1ccc(Cl)cc1)[C@H](c1ccccc1)N[C@@]21C(=O)N(Cc2ccccc2)c2ccccc21 (racemic) , MBC reported as 750

Lab note: measured MBC of COc1ccc([C@H]2[C@H](c3ccccc3)N[C@@]3(C(=O)Nc4ccc(Cl)cc43)[C@@]23NC(=O)NC3=O)cc1 (racemic) was 750
